# Assayed system: Serine/threonine-protein kinase D1 (Homo sapiens) (UniProt Q15139)
# Sequence (Q15139 whole entry, looked up): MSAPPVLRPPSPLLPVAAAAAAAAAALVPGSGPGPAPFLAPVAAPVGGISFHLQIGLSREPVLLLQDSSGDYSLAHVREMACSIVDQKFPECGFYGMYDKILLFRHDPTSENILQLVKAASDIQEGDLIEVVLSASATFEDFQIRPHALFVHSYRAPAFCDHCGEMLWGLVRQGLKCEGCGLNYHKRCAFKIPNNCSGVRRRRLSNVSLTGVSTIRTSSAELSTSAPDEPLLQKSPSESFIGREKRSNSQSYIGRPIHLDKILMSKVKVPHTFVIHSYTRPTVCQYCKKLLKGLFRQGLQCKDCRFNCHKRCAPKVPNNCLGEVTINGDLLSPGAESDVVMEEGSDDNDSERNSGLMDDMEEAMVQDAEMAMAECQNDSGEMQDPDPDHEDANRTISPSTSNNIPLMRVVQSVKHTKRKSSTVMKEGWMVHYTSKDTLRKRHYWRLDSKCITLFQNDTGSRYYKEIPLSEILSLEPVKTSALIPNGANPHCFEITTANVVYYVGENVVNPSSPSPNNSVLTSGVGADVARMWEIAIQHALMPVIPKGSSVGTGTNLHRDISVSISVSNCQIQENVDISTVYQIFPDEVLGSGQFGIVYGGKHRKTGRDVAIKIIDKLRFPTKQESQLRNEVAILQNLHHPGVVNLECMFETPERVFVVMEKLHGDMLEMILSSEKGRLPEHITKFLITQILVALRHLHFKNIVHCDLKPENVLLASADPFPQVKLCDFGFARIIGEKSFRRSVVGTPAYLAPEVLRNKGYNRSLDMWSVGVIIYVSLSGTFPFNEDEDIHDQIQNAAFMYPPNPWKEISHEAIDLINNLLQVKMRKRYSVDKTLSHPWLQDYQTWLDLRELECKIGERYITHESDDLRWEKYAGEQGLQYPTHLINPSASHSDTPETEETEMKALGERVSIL
# Measurement protocol: inhibitors of human PKD1 kinase, biochemical, fluorescence polarization (AID 797)
# Condition: PKD1 kinase fluorescence polarization assay; hits give high values; concentration not given here
About 110 (0.055%) of roughly 200,000 compounds were called active. The sample holds actives, similar compounds and a random draw of the others, so the mix is not that of the screen.
Let's look at some compounds and their measured inhibition.
Just the number please, in %, no unit attached.

Sample answers from the record:
Compound	Measurement name	Scale unit	Number
O=C(Nc1nnc(Cc2ccc(Cl)cc2)s1)c1cccnc1	inhibition	%	-1.74
Cc1ccc(O)c(-c2cc(C(=O)NCc3ccccc3)[nH]n2)c1	inhibition	%	-6.87
CCCCN(CC(=O)NC(C)(C)C)C(=O)C(=O)Nc1ccc2c(c1)OCCO2	inhibition	%	1.16
CC1=NN(C(=O)CCCc2ccccc2)C(O)(C(F)(F)F)C1 (centres undefined)	inhibition	%	-2.79
CNC(=O)COC(=O)c1cc(-c2ccc(OC)cc2)nc2ccccc12	inhibition	%	-3.14

Reported inhibition for "COc1ccc(/C=N/n2c(C)cc(C)cc2=O)cc1" was -7.11

Reported inhibition for "Cc1cc(C)cc(C(=O)NC(=S)Nc2ccc3[nH]c(=O)[nH]c3c2)c1" was 20.7

Reported inhibition for "Cn1cc(/C=C/c2nc3ccccc3c(=O)n2-c2cccc([N+](=O)[O-])c2)c2ccccc21" was -2.78
